# System: Alopecurus myosuroides
# method-description: Herbicidal post-emergence action
# Assay type: in vivo
# applied-conditions: post-emergence method, 80 g/ha
Reported herbicidal effect against ALOMY (Alopecurus myosuroides) values follow for various molecules
Reply with just the number (in %).

Below are worked cases with known answers.
[
  {
    "molecule": "COc1cc(C)cc(C)c1C1=C(OC(=O)C(C)C)C2CC3(CC2C1=O)OCC=CCO3 (stereo not shown)",
    "numeric-result": 100
  },
  {
    "molecule": "COc1cc(C)cc(C)c1C1=C(O)C2CC3(CC2C1=O)OCCCO3 (stereo not shown)",
    "numeric-result": 20
  },
  {
    "molecule": "CCOC(=O)OC1=C(c2c(CC)cc(C)cc2CC)C(=O)C2CC3(CC12)OCCCS3 (mixture of isomers)",
    "numeric-result": 100
  }
]

Enquiry: Find the recorded herbicidal effect against ALOMY (Alopecurus myosuroides) belonging to CCc1cc(C)cc(C)c1C1=C(OC(=O)C(C)(C)C)C2CC3(CC2C1=O)OCCCCO3 (stereo not shown) and report it.
Return: 100

Enquiry: What do you get for CCc1cc(C)cc(CC)c1C1=C(OC(=O)C(C)(C)C)C2CC3(COC(C)(C)O3)CC2C1=O (stereo not shown) [I-b-5] ?
Return: 90

Enquiry: What do you get for Cc1cc(C)c(C2=C([O-])C3CC4(CC3C2=O)OCCCCO4)c(C)c1.[Na+] (stereo not shown) ?
Return: 100

Enquiry: What do you get for Cc1cc(C)c(C2=C(OC(=O)C(C)C)C3CC(=O)CC3C2=O)c(C)c1 (stereo not shown) ?
Return: 20

Enquiry: What do you get for CCOC(=O)OC1=C(c2c(CC)cc(C)cc2CC)C(=O)C2CC3(CC12)SCCCS3 (stereo not shown) ?
Return: 0

Enquiry: What do you get for C=C1CC2C(=O)C(c3c(C)cc(C)cc3CC)=C(OC(=O)OCC)C2C1 (racemic) ?
Return: 10

Enquiry: What do you get for C#CC(C)ON=C1CC2C(=O)C(c3c(CC)cc(C)cc3CC)=C(OC(=O)OCC)C2C1 (stereo not shown) ?
Return: 100

Enquiry: What do you get for Cc1cc(C)c(C2=C(O)C3CC4(CC3C2=O)OCC=CCO4)c(C)c1 (stereo not shown) ?
Return: 100

Enquiry: What do you get for CCc1cc(C)cc(CC)c1C1=C(O)[C@H]2CC3(C[C@H]2C1=O)SCCS3 (relative stereo) ?
Return: 30

Enquiry: What do you get for CCc1cc(C)cc(C)c1C1=C(OC(=O)C(C)(C)C)C2CC3(CC2C1=O)OCCCO3 (stereo not shown) ?
Return: 80

Enquiry: What do you get for CCC(=O)OC1=C(c2c(C)cc(C)cc2CC)C(=O)C2CC3(COC(C)(C)O3)CC12 (stereo not shown) ?
Return: 100

Enquiry: What do you get for C=C1CC2C(=O)C(c3c(C)cc(C)cc3OC)=C([O-])C2C1.[Na+] (stereo not shown) ?
Return: 30

Enquiry: What do you get for Cc1cc(C)c(C2=C(OC(=O)CC(C)C)C3CC4(COC(C)(C)O4)CC3C2=O)c(C)c1 (mixture of isomers) ?
Return: 80

Enquiry: What do you get for CCC(C)(C)C(=O)OC1=C(c2c(C)cc(C)cc2C)C(=O)C2CC(=O)CC12 (stereo not shown) ?
Return: 0

Enquiry: What do you get for CCc1cc(C)cc(CC)c1C1=C(OC(=O)OC)C2CC3(CC2C1=O)OCCCS3 (mixture of isomers) ?
Return: 80

Enquiry: What do you get for C=C1COC2(C[C@@H]3C(OC(=O)OCC)=C(c4c(CC)cc(C)cc4CC)C(=O)[C@@H]3C2)OC1 (relative stereo) ?
Return: 90

Enquiry: What do you get for CCc1cc(C)cc(C)c1C1=C(O)C2CC3(CC2C1=O)OCCCCO3 (stereo not shown) ?
Return: 90
